# measurement_description: Single intravenous dose pharmacokinetics study in rats (1 mg/kg IV; plasma levels of prodrug and of DMT or 5-MeO-DMT by LC-MS/MS)
# measurement_parameters: IV 1 mg/kg, plasma, analyte = dosed compound
measured_endpoint: Clast (ng/mL)

> print(dat)
                                   compound  quantity.unit  recorded.result
1  COc1ccc2c(c1)c(CCN(C)C)cn2P(=O)(OC(C)C)OC(C)C [Diisopropylphosphonate 5-MeO-DMT Prodrug]          ng/mL             5.32
2                   CN(C)CCc1c[nH]c2ccccc12          ng/mL             7.12
3  CC(C)OP(=O)(OC(C)C)n1cc(CCN(C)C)c2ccccc21 [Diisopropylphosphonate DMT Prodrug]          ng/mL             5.22
4            CCOC(=O)n1cc(CCN(C)C)c2ccccc21          ng/mL             3.26
5        CCOC(=O)n1cc(CCN(C)C)c2cc(OC)ccc21          ng/mL             2.95
6  COc1ccc2[nH]cc(CCN(C)C)c2c1 [Compound 5-MeO-DMT, 5-methoxy-N,N-dimethyltryptamine, reference compound]          ng/mL             1.68
